molecular target: human adrenergic-α2A receptor (Homo sapiens, UniProt P08913); construct: expressed in transfected cells; host or cells: CHO cells, stably transfected; membrane preparation; test: Radioligand binding experiment for hα2A-adrenergic receptor ([3H]raulwolscine); details: [3H]raulwolscine 1 nM, 60 minutes at 25° C.; read-out: h-α2A pIC50 (converted)
Sequence (P08913 whole entry): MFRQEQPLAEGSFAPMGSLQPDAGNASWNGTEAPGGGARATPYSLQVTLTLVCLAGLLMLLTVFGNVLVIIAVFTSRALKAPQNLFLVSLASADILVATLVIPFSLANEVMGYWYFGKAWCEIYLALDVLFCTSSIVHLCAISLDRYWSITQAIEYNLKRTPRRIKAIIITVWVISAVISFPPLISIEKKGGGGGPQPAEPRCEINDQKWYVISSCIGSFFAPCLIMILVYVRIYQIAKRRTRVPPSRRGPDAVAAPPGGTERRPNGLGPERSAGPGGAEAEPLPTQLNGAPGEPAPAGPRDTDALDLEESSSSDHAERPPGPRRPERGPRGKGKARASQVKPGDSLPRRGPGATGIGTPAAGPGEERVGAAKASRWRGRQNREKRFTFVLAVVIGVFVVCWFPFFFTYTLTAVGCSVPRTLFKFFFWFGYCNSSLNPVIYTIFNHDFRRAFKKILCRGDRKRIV
reportedProperty: IC50 (nM)
Give bare numbers, in nM.

chemicalSmiles | IC50 / nM
O=C(NCc1ccc(-n2ccnc(NC3CCN(Cc4ccc5ccccc5c4)CC3)c2=O)cc1)c1ccncc1 | 501

Each compound below has a recorded value; state its IC50.
1. O=c1c(NC2CCN(Cc3ccc4ccccc4c3)CC2)nccn1-c1cccnc1
2. COCCCNC(=O)NCc1ccc(-n2ccnc(NC3CCN(Cc4ccc5ccccc5c4)CC3)c2=O)cc1
3. CC(C)(C)OC(=O)NCc1ccc(Cn2ccnc(N3CCN(Cc4cccc5ccccc45)CC3)c2=O)cc1
4. O=C1c2ccccc2C(=O)N1CC#CCn1ccnc(NC2CCN(Cc3ccc4ccccc4n3)CC2)c1=O

*A*
1: 398; 2: 501; 3: 631; 4: 2000

---

Molecular target: human adrenergic-α2C receptor (Homo sapiens, UniProt P18825)
Construct: expressed in transfected cells; host or cells: CHO cells, stably transfected; membrane preparation
Sequence (P18825 1-462): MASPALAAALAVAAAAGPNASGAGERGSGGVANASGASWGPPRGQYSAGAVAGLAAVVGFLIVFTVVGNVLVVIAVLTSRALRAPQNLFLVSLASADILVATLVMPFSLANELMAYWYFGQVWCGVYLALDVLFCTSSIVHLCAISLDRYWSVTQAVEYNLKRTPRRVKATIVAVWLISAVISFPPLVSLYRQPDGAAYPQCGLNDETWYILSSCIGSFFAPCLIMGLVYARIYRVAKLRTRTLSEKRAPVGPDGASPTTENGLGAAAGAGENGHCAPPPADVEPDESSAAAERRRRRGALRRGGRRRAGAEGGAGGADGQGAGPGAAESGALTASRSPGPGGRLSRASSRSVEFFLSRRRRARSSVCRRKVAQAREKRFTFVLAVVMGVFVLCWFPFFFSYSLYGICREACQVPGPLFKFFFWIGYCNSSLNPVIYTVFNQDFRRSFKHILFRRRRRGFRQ
Assay: Radioligand binding experiment for hα2C-adrenoceptor ([3H]raulwolscine)
Conditions: [3H]raulwolscine 1 nM, 60 minutes at 25° C.; read-out: h-α2C pIC50 (converted)
reportedProperty: log10(IC50) (log10 of the value in nM)
Could you please treat all values as log10 of IC50 in nM?

Give one value of log10(IC50) per listed compound.
1. O=c1c(NC2CCN(Cc3ccc4ccccc4c3)CC2)nccn1-c1ccc2cc[nH]c2c1
2. O=C(Cn1ccnc(NC2CCN(Cc3ccc4ccccc4c3)CC2)c1=O)N(Cc1ccccc1)c1ccccc1
3. CC(=O)N1CCc2ccc(-n3ccnc(NC4CCN(Cc5ccc6ccccc6c5)CC4)c3=O)cc2C1
4. O=c1c(NC2CCN(Cc3ccc4ccccc4c3)CC2)nccn1-c1csc2ccccc12
5. CC(C)(C)OC(=O)NCc1ccc(Cn2ccnc(N3CCN(Cc4cccc5ccccc45)CC3)c2=O)cc1
6. O=c1c(NC2CCN(Cc3ccc4ccccc4c3)CC2)nccn1-c1ccccn1
7. O=c1c(NC2CCN(Cc3ccc4ccccc4c3)CC2)nccn1-c1ccc(CNCCN2CCOCC2)cc1
8. O=C(Nc1cccc(-n2ccnc(NC3CCN(Cc4ccc5ccccc5c4)CC3)c2=O)c1)c1ccc(F)cc1

*A*
1: 1.60; 2: 1.30; 3: 1.00; 4: 1.70; 5: 2.60; 6: 1.40; 7: 1.30; 8: 1.80

Would you be so kind as to report log10(IC50) for each listed record?
1. CCOC(=O)CCCCn1ccnc(NC2CCN(Cc3ccc4ccccc4c3)CC2)c1=O
2. O=c1c(NC2CCN(Cc3ccc4ccccc4c3)CC2)nccn1-c1ccsc1

*A*
1. 1.10
2. 1.60
